- experimental-target: Maltase-glucoamylase (Homo sapiens)
- assay-name: Inhibition of alpha-glucosidase (unknown origin) using pNPG as substrate at 64 uM preincubated with enzyme for 15 mins followed by substrate addition and measured after 10 mins by microplate reader analysis
- measurement-conditions: time 25.0 min
Exercise: state measured inhibition for each of the compounds provided.
Supply the numeric figure in %, leaving out any unit text.

inhibition lookup needed for C=CCc1cc(CN(C)c2ccccc2)c(O)c(-c2cc(CC=C)c(O)c(CN(C)c3ccccc3)c2)c1 , thanks.
63

Now this one: C=CCc1cc(-c2ccc(O)c(CC=C)c2)c(O)c(C(c2ccc(OC)cc2)N2CCOCC2)c1 (centres undefined)
6.2

Entry to check: C=CCc1cc(-c2ccc(O)c(CC=C)c2)c(O)c(C(c2ccc(OC)cc2)N2CCCCC2)c1 (centres undefined)
85

Moving on to the next compound: C=CCc1cc(-c2ccc(O)c(CC=C)c2)c(O)c(C(c2ccccc2)N2CCC(C)CC2)c1 (centres undefined)
25.8

Quick one: C=CCc1cc(-c2ccc(O)c(CC=C)c2)c(O)c(C(c2ccc(Cl)cc2)N2CCCCC2)c1 (centres undefined)
45

// repeat for C=CCc1ccc(O)c(-c2cc(CC=C)cc(CN(C)c3ccccc3)c2O)c1 and report
15.5

Next compound: C=CCc1cc(CN(C(C)C)C(C)C)c(O)c(-c2cc(CC=C)c(O)c(CN(C(C)C)C(C)C)c2)c1
7.2

And what about the compound C=CCc1cc(CN2CCCCC2C)c(O)c(-c2cc(CC=C)c(O)c(CN3CCCCC3C)c2)c1 (centres undefined) ?
3.33

Also need C=CCc1cc(-c2ccc(O)c(CC=C)c2)c(O)c(C(c2cc(Cl)cc(Cl)c2)N2CCOCC2)c1 (centres undefined) , thanks.
92.6

###

- experimental-target: Maltase-glucoamylase (Homo sapiens)
- assay-name: Inhibition of alpha-glucosidase (unknown origin) using pNPG as substrate at 64 uM preincubated with enzyme for 15 mins followed by substrate addition and measured after 10 mins by microplate reader analysis
- measurement-conditions: time 25.0 min
Can you tell me inhibition for the items I'm about to list?
The answer is to be given in %; state only the numeric part.

Find the recorded inhibition belonging to C=CCc1cc(-c2ccc(O)c(CC=C)c2)c(O)c(C(c2cc(OC)c(OC)c(OC)c2)N2CCCCC2)c1 (stereo unspecified) and report it.
56.4

Another: C=CCc1cc(-c2ccc(O)c(CC=C)c2)c(O)c(C(c2cc(Cl)cc(Cl)c2)N2CCCCC2)c1 (stereo unspecified)
87.7

Try this compound too: C=CCc1ccc(O)c(-c2cc(CC=C)cc(CN(CC(C)C)CC(C)C)c2O)c1
3.8

Then what about the compound C=CCc1cc(CN(CCCC)CCCC)c(O)c(-c2cc(CC=C)c(O)c(CN(CCCC)CCCC)c2)c1 ?
4.7

Let us now turn to C=CCc1cc(-c2ccc(O)c(CC=C)c2)c(O)c(C(c2cc(OC)c(OC)c(OC)c2)N2CCCC2)c1 (stereo unspecified)
43

Would you mind doing C=CCc1cc(CN(CC(C)C)CC(C)C)c(O)c(-c2cc(CC=C)c(O)c(CN(CC(C)C)CC(C)C)c2)c1 as well?
6.2

Same question, C=CCc1cc(CN2CCCC2)c(O)c(-c2cc(CC=C)c(O)c(CN3CCCC3)c2)c1 this time
4.7

Try the compound C=CCc1ccc(O)c(-c2cc(CC=C)cc(CN(C)C(C)C)c2O)c1
3.4

Query C=CCc1cc(-c2ccc(O)c(CC=C)c2)c(O)c(C(c2ccccc2)N2CCCCC2)c1 (stereo unspecified) next
13.6

Now consider C=CCc1ccc(O)c(-c2cc(CC=C)cc(CN(CCC)CCC)c2O)c1 and answer again.
6.3

Next compound: C=CCc1cc(-c2ccc(O)c(CC=C)c2)c(O)c(C(c2ccc(Cl)cc2)N2CCC(C)CC2)c1 (stereo unspecified)
8.6

###

- experimental-target: Maltase-glucoamylase (Homo sapiens)
- assay-name: Inhibition of alpha-glucosidase (unknown origin) using pNPG as substrate at 64 uM preincubated with enzyme for 15 mins followed by substrate addition and measured after 10 mins by microplate reader analysis
- measurement-conditions: time 25.0 min
endpoint-name: inhibition (%)
All answers are understood in %, so give the number only.

Look up inhibition for this compound: C=CCc1ccc(O)c(-c2cc(CC=C)cc(CN3CCC(C)CC3)c2O)c1
6.3

Param item: C=CCc1cc(CN(CCC)CCC)c(O)c(-c2cc(CC=C)c(O)c(CN(CCC)CCC)c2)c1
4.8

Another: C=CCc1cc(-c2cc(CC=C)c(O)c(C(c3ccc(OC)cc3)N3CCC(C)CC3)c2)c(O)c(C(c2ccc(OC)cc2)N2CCC(C)CC2)c1 (stereo not given)
27.8

Another compound to look at: C=CCc1ccc(O)c(-c2ccc(O)c(CC=C)c2)c1
30.6

Moving on to C=CCc1cc(-c2ccc(O)c(CC=C)c2)c(O)c(C(c2ccc(Cl)cc2)N2CCCC2)c1 (stereo not given)
40.6

###

- experimental-target: Maltase-glucoamylase (Homo sapiens)
- assay-name: Inhibition of alpha-glucosidase (unknown origin) using pNPG as substrate at 64 uM preincubated with enzyme for 15 mins followed by substrate addition and measured after 10 mins by microplate reader analysis
- measurement-conditions: time 25.0 min
endpoint-name: inhibition (%)
Respond numerically; units are % and should not be typed.

GET /values?readout=inhibition&system=Maltase-glucoamylase (Homo sapiens)&item= C=CCc1cc(-c2cc(CC=C)c(O)c(C(c3ccc(Cl)cc3)N3CCOCC3)c2)c(O)c(C(c2ccc(Cl)cc2)N2CCOCC2)c1 (stereo not drawn)
80.1

Would you mind doing C=CCc1ccc(O)c(-c2cc(CC=C)cc(CN(CCCC)CCCC)c2O)c1 as well?
8.2

Also check C=CCc1cc(CN2CCC(C)CC2)c(O)c(-c2cc(CC=C)c(O)c(CN3CCC(C)CC3)c2)c1
6.5

Also, C=CCc1ccc(O)c(-c2cc(CC=C)cc(CN3CCN(C)CC3)c2O)c1 please.
9.4

Please do the same for C=CCc1ccc(O)c(-c2cc(CC=C)ccc2O)c1 as well.
9.6

Now the molecule C[C@H]1O[C@H](O[C@H]2[C@H](O)[C@@H](O)[C@@H](O[C@H]3[C@H](O)[C@@H](O)C(O)O[C@@H]3CO)O[C@@H]2CO)[C@H](O)[C@@H](O)[C@@H]1N[C@H]1C=C(CO)[C@@H](O)[C@H](O)[C@H]1O (stereo partly drawn)
99

Param item: C=CCc1cc(CN(C)C(C)C)c(O)c(-c2cc(CC=C)c(O)c(CN(C)C(C)C)c2)c1
4.1

Follow-up item: C=CCc1cc(-c2ccc(O)c(CC=C)c2)c(O)c(C(c2cc(Cl)cc(Cl)c2)N2CCC(C)CC2)c1 (stereo not drawn)
97.5
